Sourced from patent US20120129766A1

Molecular target: T1, human β-klotho (human, UniProt Q86Z14 1-1044)
T1 sequence (looked up): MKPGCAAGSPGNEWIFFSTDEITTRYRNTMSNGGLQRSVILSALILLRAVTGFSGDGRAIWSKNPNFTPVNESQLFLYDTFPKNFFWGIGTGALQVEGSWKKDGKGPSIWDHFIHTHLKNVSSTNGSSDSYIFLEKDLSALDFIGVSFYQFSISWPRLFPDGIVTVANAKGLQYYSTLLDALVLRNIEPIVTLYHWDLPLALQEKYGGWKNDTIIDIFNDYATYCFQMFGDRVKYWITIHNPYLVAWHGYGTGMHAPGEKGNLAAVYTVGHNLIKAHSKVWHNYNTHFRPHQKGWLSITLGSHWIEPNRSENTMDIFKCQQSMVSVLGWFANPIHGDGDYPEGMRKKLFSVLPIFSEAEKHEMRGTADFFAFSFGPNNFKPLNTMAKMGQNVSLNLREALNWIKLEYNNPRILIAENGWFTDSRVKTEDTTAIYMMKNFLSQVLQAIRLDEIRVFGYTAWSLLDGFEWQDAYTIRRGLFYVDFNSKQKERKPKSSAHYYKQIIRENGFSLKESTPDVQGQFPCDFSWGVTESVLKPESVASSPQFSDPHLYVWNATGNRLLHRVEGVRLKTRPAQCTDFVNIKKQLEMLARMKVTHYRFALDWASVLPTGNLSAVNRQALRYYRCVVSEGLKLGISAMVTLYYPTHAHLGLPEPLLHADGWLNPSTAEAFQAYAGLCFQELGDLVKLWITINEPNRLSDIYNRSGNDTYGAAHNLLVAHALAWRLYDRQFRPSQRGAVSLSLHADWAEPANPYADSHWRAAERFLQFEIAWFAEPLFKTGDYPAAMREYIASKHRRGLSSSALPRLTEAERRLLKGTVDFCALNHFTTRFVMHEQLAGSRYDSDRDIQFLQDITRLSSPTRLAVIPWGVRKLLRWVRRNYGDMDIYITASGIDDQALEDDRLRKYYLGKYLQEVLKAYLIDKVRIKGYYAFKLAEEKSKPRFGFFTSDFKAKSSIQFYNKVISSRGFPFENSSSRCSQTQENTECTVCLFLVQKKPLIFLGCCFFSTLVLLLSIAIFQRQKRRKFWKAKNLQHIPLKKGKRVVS
Assay: cell-based or functional assay
metric.name: Fold-WT (EC50 of variant / EC50 of FGF21-WT) (fold)
Output spec: scalar in fold, unitless text.

// solved cases for Fold-WT (EC50 of variant / EC50 of FGF21-WT) follow
# binder, result.value
records = [
    ("hFGF21(33-209)-V5 (ligand) DSSPLLQFGGQVRQRYLYTDDDQQTEAHLEIREDGTVGGAAHQSPESLLQLKALKPGVIQILGVKASRFLCQKPDGALYGSLHFDPEACSFRELLLENGYNVYQSEAHGLPLHLPGNRSPHRDPASQGPARFLPLPGLPPALPEPPGILAPQPPDVGSSDPLAMVGPSQARSPSYAS", 9.3),
    ("hFGF21(33-209)-V57 (ligand) DSSPLLQFGGQVRQRYLYTDDAQQTEAHLEIREDGTVGGAAHQSPESLLQLKALKPGVIQILGVKASRFLCQRPDGALYGSLHFDPEACSFRELLLENGYNVYQSETHGLPLHLPGNRSPHRDPASQGPARFLPLPGLPPAPPEPPGILAPQPPDVGSSDPLAMVGPSQARSPSYAS", 5.4),
    ("hFGF21(33-209)-V15 (ligand) DSSPLLQFGGQVRQRYLYTDDAQETEAHLEIREDGTVGGAAHQSPESLLQLKALKPGVIQILGVQTSRFLCQKPDGALYGSLHFDPEACSFRELLLENGYNVYQSEAHGLPLHLPGNRSPHRDPAPQGPARFLPLPGLPPALPEPPGILAPQPPDVGSSDPLAMVGPSQGRSPSYAS", 1.2),
    ("hFGF21(33-209)-V81 (ligand) DSSPLLQFGGQVRQRYLYTDDAQQTEAHLEIREDGTVGGAAHQSPESLLELKALKPGVIQILGVKTSRFLCQKPDGALYGSLHFDPEACSFRELLLEDGYNVYQSEAHGLPLHLPGNRSPHCDPASQGPARFLPLPGLPPALPEPPGILAPQPPDVGSSDPLAMVGPSQGRSPSYAS", 2.1),
    ("hFGF21(33-209)-V14-pool2 (ligand) DSSPLLQFGGQVRQRYLYTDDAQETEAHLEIREDGTVGGAAHQSPESLLELKALKPGVIQILGVKTSRFLCQKPDGALYGSLHFDPEACSFRELLLEDGYNVYQSEAHGLPLHLPGNRSPHRDPAPQGPARFLPLPGLPPALPEPPGILAPQPPDVGSSDPLAMVGPSQGRSPSYAS", 1.4),
    ("hFGF21(33-209)-V53 (ligand) DSSPLLQFGGQVRQRYLYTDDAQETEAHLEIREDGTVGGAAHQSPESLLELKALKPGVIQILGVKTSRFLCQKPDGALYGSLHFDPEACSFRELLLENGYNVYQSEAHGLPLHLPGNRSPHRDPASQGPARFLPLPGLPPAPPEPPGILAPQPPDVGSSDPLAMVGPSQGRSPSYAS", 1.3),
    ("hFGF21(33-209)-V9 (ligand) DSSPLLQFGGQVRQRYLYTDDDQQTEAHLEIREDGTVGGAAHQSPESLLQLKALKPGVIQILGVKASRFLCQKPDGALYGSLHFDPEACSFRELLLENGYNVYQSETHGLPLHLPGNKSPHRDPASQGPARFLPLPGLPPALPEPPGILAPQPPDVGSSDPLAMVGPSQARSPSYAS", 2.4),
    ("hFGF21(33-209)-V14-L174P, R154C-40 kDa bPEG-MA (ligand, 40 kDa branched maleimido-PEG on Cys 154 (numbered on SEQ ID NO:1)) DSSPLLQFGGQVRQRYLYTDDAQETEAHLEIREDGTVGGAAHQSPESLLELKALKPGVIQILGVKTSRFLCQKPDGALYGSLHFDPEACSFRELLLENGYNVYQSEAHGLPLHLPGNRSPHCDPAPQGPARFLPLPGLPPAPPEPPGILAPQPPDVGSSDPLAMVGPSQGRSPSYAS", 3.3),
]

IN: Given the entry hFGF21(33-209)-V61 (ligand) DSSPLLQFGGQVRQRYLYTDDACQTEAHLEIREDGTAGGAAHQSPESLLELKALKPGVIQILGVKTSRFLCQRPDGALYGSLHFDPEACSFRELLLENGYNVYQSEAHGLPLHLPCNRSPHRDPASRGPARFLPLPGLPPAPPEPPGILAPQPPDVGSSDPLAMVGPSQGRSPSYAS , report its measured Fold-WT (EC50 of variant / EC50 of FGF21-WT).
OUT: 6.3

IN: Given the entry hFGF21(33-209)-V84 (ligand) DSSPLLQFGGQVRQRYLYTDDAQQTEAHLEIREDGTVGGAADQSPESLLELKALKPGVIQILGVKTSRFLCQRPDGTLYGSLHFDPEACSFRELLLEDGYNVYQSETHGLPLHLPGNRSPHCDPASRGPARFLPLPGLPPALPEPPGILAPQPPDVGSSDPLAMVGPSQARSPSYAS , report its measured Fold-WT (EC50 of variant / EC50 of FGF21-WT).
OUT: 1.1

IN: Given the entry hFGF21(33-209)-V54 (ligand) DSSPLLQFGGQVRQRYLYTDDAQQTEAHLEIREDGTVGGAAHQSPESLLELKALKPGVIQILGVKTSRFLCQKPDGTLYGSLHFDPEACSFRELLLENGYNVYQSEAHGLPLHLPGNRSPHRDPASQGPARFLPLPGLPPAPPEPPGILAPQPPDVGSSDPLAMVGPSQGRSPSYAS , report its measured Fold-WT (EC50 of variant / EC50 of FGF21-WT).
OUT: 9.2

IN: Given the entry hFGF21(33-209)-V82 (ligand) DSSPLLQFGGQVRQRYLYTDDAQQTEAHLEIREDGTVGGAADQSPESLLELKALKPGVIQILGVKTSRFLCQKPDGTLYGSLHFDPEACSFRELLLEDGYNVYQSEAHGLPLHLPGNRSPHCDPASQGPARFLPLPGLPPALPEPPGILAPQPPDVGSSDPLAMVGPSQGRSPSYAS , report its measured Fold-WT (EC50 of variant / EC50 of FGF21-WT).
OUT: 2.7
